Reported log10 of Ki values for the following compounds.
Target: hCA IX (Homo sapiens, UniProt Q16790)
Construct: gene CA9
Assay: stopped-flow CO2 hydrase assay
Type: biochemical
OUTCOME MEASURE: log10 of Ki (log10 of the value in µM)

{"SMILES CODE": "O=C1CN(N2C(=O)c3ccccc3C2=O)C(=O)N1", "ASSAY RESULT": -0.48}
{"SMILES CODE": "O=C1CN(N2C(=O)c3ccc([N+](=O)[O-])cc3C2=O)C(=O)N1Cc1ccc([N+](=O)[O-])cc1", "ASSAY RESULT": 0.66}
{"SMILES CODE": "O=C1CN(N2C(=O)c3ccc([N+](=O)[O-])cc3C2=O)C(=O)N1", "ASSAY RESULT": -0.31}
{"SMILES CODE": "O=C1CN(N2C(=O)c3ccc([N+](=O)[O-])cc3C2=O)C(=O)N1Cc1ccccc1", "ASSAY RESULT": 0.44}
{"SMILES CODE": "O=C1CN(N2C(=O)c3ccccc3C2=O)C(=O)N1Cc1ccccc1", "ASSAY RESULT": 0.57}
{"SMILES CODE": "O=C1CN(NC(=O)c2cc([N+](=O)[O-])ccc2C(=O)O)C(=O)N1", "ASSAY RESULT": 0.61}
{"SMILES CODE": "N#Cc1ccc(CN2C(=O)CN(N3C(=O)c4ccccc4C3=O)C2=O)cc1", "ASSAY RESULT": 0.68}
{"SMILES CODE": "N#Cc1ccc(CN2C(=O)CN(N3C(=O)c4ccc([N+](=O)[O-])cc4C3=O)C2=O)cc1", "ASSAY RESULT": 0.81}
{"SMILES CODE": "O=C1CN(N2C(=O)c3ccccc3C2=O)C(=O)N1Cc1ccc([N+](=O)[O-])cc1", "ASSAY RESULT": 0.75}

* * *

Molecular target: hCA VII (Homo sapiens)
Construct: gene CA7; in-house recombinant protein; construct not described here
Sequence (P43166 whole entry): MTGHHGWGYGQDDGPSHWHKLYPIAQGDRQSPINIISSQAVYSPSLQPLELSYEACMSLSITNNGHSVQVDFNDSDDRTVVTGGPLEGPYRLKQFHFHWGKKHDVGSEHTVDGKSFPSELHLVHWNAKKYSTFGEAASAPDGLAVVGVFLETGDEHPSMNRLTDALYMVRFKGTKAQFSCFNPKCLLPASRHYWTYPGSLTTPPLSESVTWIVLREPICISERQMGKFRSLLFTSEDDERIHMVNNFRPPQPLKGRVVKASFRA
Assay: stopped-flow CO2 hydrase assay
Format: biochemical
Reported Ki values for the following molecules.
OUTCOME MEASURE: Ki (µM)

{"SMILES CODE": "O=C1CN(N2C(=O)c3ccc([N+](=O)[O-])cc3C2=O)C(=O)N1", "ASSAY RESULT": 0.163}
{"SMILES CODE": "N#Cc1ccc(CN2C(=O)CN(N3C(=O)c4ccccc4C3=O)C2=O)cc1", "ASSAY RESULT": 59.1}
{"SMILES CODE": "O=C1CN(N2C(=O)c3ccccc3C2=O)C(=O)N1Cc1ccccc1", "ASSAY RESULT": 33.7}
{"SMILES CODE": "O=C1CN(N2C(=O)c3ccc([N+](=O)[O-])cc3C2=O)C(=O)N1Cc1ccccc1", "ASSAY RESULT": 45.9}
{"SMILES CODE": "O=C1CN(NC(=O)c2cc([N+](=O)[O-])ccc2C(=O)O)C(=O)N1", "ASSAY RESULT": 13.9}
{"SMILES CODE": "O=C1CN(N2C(=O)c3ccc([N+](=O)[O-])cc3C2=O)C(=O)N1Cc1ccc([N+](=O)[O-])cc1", "ASSAY RESULT": 26.3}
{"SMILES CODE": "N#Cc1ccc(CN2C(=O)CN(N3C(=O)c4ccc([N+](=O)[O-])cc4C3=O)C2=O)cc1", "ASSAY RESULT": 50.5}
{"SMILES CODE": "O=C1CN(N2C(=O)c3ccccc3C2=O)C(=O)N1", "ASSAY RESULT": 0.075}
{"SMILES CODE": "O=C1CN(N2C(=O)c3ccccc3C2=O)C(=O)N1Cc1ccc([N+](=O)[O-])cc1", "ASSAY RESULT": 37.6}
